- Tested on: SN12C renal
- Experiment notes: NCI tumour cell line growth inhibition, 48 h; in the data active = GI50 below about 0.43 µM; inactive = the rest
The categories you may choose from are active, inactive

Req: Called result for COC(=O)c1ccc2c(c1)/C(=C\c1cc(Br)c(O)c(Br)c1)C(=O)N2
Resp: inactive

Req: Called result for O=C(Nc1cc(C(F)(F)F)ccc1Cl)c1cccc(NC2=C(Cl)C(=O)N(Cc3ccccc3)C2=O)c1
Resp: inactive

Req: Called result for CN1CC[C@@H](c2c(O)cc(O)c3c(=O)cc(-c4ccc(C(F)(F)F)cc4Cl)oc23)[C@@H]1CO
Resp: inactive

Req: Called result for Cn1c(Nc2ccc(C(F)(F)F)cc2)nc2cc(Oc3ccnc(-c4ncc(C(F)(F)F)[nH]4)c3)ccc21
Resp: active

Req: Called result for O=C1c2cccc3cccc(c23)C(=O)N1CCCCCN1CCN(CCCCCOc2ccc(-c3nc4ccc(N5CCOCC5)cc4[nH]3)cc2)CC1
Resp: inactive

Req: Called result for COc1ccc(-c2nsc3c2NC(=O)CC3c2cccc(OC)c2)cc1 (centres undefined)
Resp: inactive

Req: Called result for CN(C)CCC(=O)C(=Cc1ccc(O)cc1)C(=O)CCN(C)C
Resp: inactive

Req: Called result for COc1ccc(-c2nnc(N3CCN(C(=O)CN4CCN(c5ccccc5)CC4)CC3)nc2-c2ccc(OC)cc2)cc1
Resp: inactive

Req: Called result for C#Cc1nc(Nc2cc(C)[nH]n2)c2ccccc2n1
Resp: active

---

Task for the reader: assign each of the following compounds its reported TGI.
- Tested on: RPMI-8226 leukemia
- Experiment notes: NCI tumour cell line growth inhibition, 48 h
Enter your answer as a number in µM; do not include the unit.

Req: # lookup: RPMI-8226 leukemia TGI, key = CCOC(=O)/C(=C/c1ccc(N(C)C)cc1)N(CC)CC
Resp: 89

Req: # lookup: RPMI-8226 leukemia TGI, key = CC(C)[Si]1(C(C)C)OCC2OC3(CO)C(Oc4nc(=O)ccn43)C2O[Si](C(C)C)(C(C)C)O1 (stereo not given)
Resp: 23.9

Req: # lookup: RPMI-8226 leukemia TGI, key = COC(=O)C1=C(C(=O)OC)C2=S(SC3=C2CCCC3)S1 (stereo not given)
Resp: 30.1

Req: # lookup: RPMI-8226 leukemia TGI, key = O=C(CSc1c2ccccc2nc2ccccc12)Nc1ccccc1-c1ccccc1NC(=O)CSc1c2ccccc2nc2ccccc12
Resp: 30.4

---

Task for the reader: assign each of the following molecules its reported TGI.
- Tested on: HCT-116 colon
- Experiment notes: NCI tumour cell line growth inhibition, 48 h

Req: Using the record for C=CN1C(=O)[C@H](Oc2ccccc2)[C@@H]1c1ccccc1 , state its measured TGI.
Resp: > 100 µM

Req: Using the record for FC(F)(F)c1ccc2c(c1)nc(-c1ccc(Cl)cc1)n2CC1CCCN2CCCCC12 (stereo not given) , state its measured TGI.
Resp: 27.4 µM

Req: Using the record for O=C(Nc1ccc([N+](=O)[O-])cc1[N+](=O)[O-])C(=O)C(C(=O)c1ccc2ccccc2c1)C1OC(=O)c2ccccc21 (stereo not given) , state its measured TGI.
Resp: 32 µM

Req: Using the record for C=CCC1(CN(C)C)CC/C(=C\c2ccc(Cl)cc2)C1=O (stereo not given) , state its measured TGI.
Resp: > 94.5 µM

Req: Using the record for CCN(CC)CCSc1c2ccccc2nc2c(OC)ccc(OC)c12 , state its measured TGI.
Resp: 17.7 µM

Req: Using the record for O=S(=O)(c1ccccc1)N1N=C2c3ccccc3CCC[C@H]2C1c1ccccc1 (stereo not given in full) , state its measured TGI.
Resp: > 100 µM

Req: Using the record for CS/C(=C(\S)c1ccccc1)c1ccccc1 , state its measured TGI.
Resp: > 100 µM

Req: Using the record for CC(Oc1ccc(Cl)cc1Cl)C(=O)NN1C(=O)CSC1c1ccccc1 (stereo not given) , state its measured TGI.
Resp: > 100 µM

Req: Using the record for Cn1c2ccccc2c(=O)c2cccc(C(=O)NC(CS)C(=O)O)c21 (stereo not given) , state its measured TGI.
Resp: > 100 µM

Req: Using the record for Cc1ccc(Cl)c2c(=O)c3ccc(N)cc3sc12 , state its measured TGI.
Resp: 35.1 µM

Req: Using the record for Cc1cc(C(F)(F)F)cc(-n2nc(NS(=O)(=O)c3cc(C)c(Cl)cc3S)nc2N)n1 , state its measured TGI.
Resp: > 100 µM

Req: Using the record for O=C(Cn1c(-c2ccccc2)cc2ccccc21)N1CCCC1 , state its measured TGI.
Resp: > 100 µM

Req: Using the record for COc1cccc(C2CC23C(=O)NC(=O)NC3=O)c1 (stereo not given) , state its measured TGI.
Resp: > 100 µM

Req: Using the record for COc1ccc(N=NC(=O)NC(CC(C)C)C(=O)NC(C)C(=O)O)cc1 (stereo not given) , state its measured TGI.
Resp: > 100 µM

Req: Using the record for CC(Oc1ccc(OCC2CCCCC2)cc1)C(=O)OCC(=O)c1ccc(-c2ccccc2)cc1 (stereo not given) , state its measured TGI.
Resp: > 100 µM

Req: Using the record for CCc1ccc(/C=C/c2ccc(O)c3ncccc23)[n+](C)c1 , state its measured TGI.
Resp: > 100 µM

Req: Using the record for CSc1ccccc1C#C/C=C\C#Cc1ccccc1N , state its measured TGI.
Resp: 16.9 µM

Req: Using the record for Clc1nc(Cl)nc(Nc2cccc3ccccc23)n1 , state its measured TGI.
Resp: > 100 µM

Req: Using the record for Nc1ccn(C2OC(C(O)CO)C(O)C2O)c(=O)n1 (stereo not given) , state its measured TGI.
Resp: > 100 µM

Req: Using the record for C=C(Nc1nc2ccc(C)cc2s1)C(=O)C(CC)C(=O)C(CC)CC1C(=O)NC(=O)NC1=O (stereo not given) , state its measured TGI.
Resp: > 100 µM

---

- Tested on: UACC-62 melanoma
- Experiment notes: NCI tumour cell line growth inhibition, 48 h
Measured metric: GI50

Req: Using the record for CN(C)CCC(=O)C(=Cc1ccc(O)cc1)C(=O)CCN(C)C , state its measured GI50.
Resp: > 100 µM

Req: Using the record for C=CCc1ccc(O)c(-c2ccc(O)c(CC=C)c2)c1 , state its measured GI50.
Resp: 16 µM

Req: Using the record for CC(C)OC(=O)[C@H](C)NP(=O)(OC[C@H]1O[C@@H](n2ccc(=O)[nH]c2=O)[C@](C)(F)[C@@H]1O)Oc1ccccc1 (stereo not given in full) , state its measured GI50.
Resp: > 100 µM

Req: Using the record for CC1CCN(C(=O)OCc2nc3nc(Cl)nc(N4CCOCC4)c3[nH]2)CC1 , state its measured GI50.
Resp: 1.29 µM

Req: Using the record for COc1ccc(/C(=C\C=C(C#N)C#N)Sc2nc3ccccc3s2)cc1 , state its measured GI50.
Resp: 8.63 µM

---

- System: HOP-92 NSCLC
- Experiment notes: NCI tumour cell line growth inhibition, 48 h
Task for the reader: assign each of the following molecules its reported log10 of TGI.
Scale type: logarithmic (base 10). Underlying TGI unit: µM.

Req: Using the record for COC(=O)c1ccc(-c2c(C#N)[n+](=O)c3cc(Cl)c(Cl)cc3n2[O-])cc1 , state its measured log10 of TGI.
Resp: 1.54

Req: Using the record for C(=C\c1ccc(-c2cn3cc(/C=C/C=N/NC4=NCCN4)ccc3n2)cc1)/C=N/NC1=NCCN1 , state its measured log10 of TGI.
Resp: 0.40

Req: Using the record for Nc1ccccc1N=Cc1cc2cc([N+](=O)[O-])ccc2s1 , state its measured log10 of TGI.
Resp: 1.74

Req: Using the record for CC1(C)OC[C@@H]([C@H](O)C2C=CC(=O)S2)O1 (some centres not stated) , state its measured log10 of TGI.
Resp: 1.77

Req: Using the record for COc1cc(C2CC(c3cccc(Nc4ccncc4)c3)=NN2c2ccc(Cl)cc2)cc(OC)c1OC (configuration not stated) , state its measured log10 of TGI.
Resp: 0.43

Req: Using the record for O=c1nc(N2CCNCC2)oc2cc(Cl)oc(=O)c12 , state its measured log10 of TGI.
Resp: 1.19

Req: Using the record for CC1OC(OC2C(OC(=O)[C@]34CCC(C)(C)C[C@H]3C3=CC[C@@H]5[C@@]6(C)CC[C@H](OC7OC(CO)C(O)C(O)C7OC7OC(CO)C(O)C(O)C7O)C(C)(C)[C@@H]6CC[C@@]5(C)[C@]3(C)CC4)OCC(O)C2O)C(O)C(OC2OCC(O)C(O)C2O)C1OC1OCC(O)C(OC2OCC(O)C(O)C2O)C1O (some centres not stated) , state its measured log10 of TGI.
Resp: 1.31

Req: Using the record for CC(C)C(C/C=C1\CC(CO)(COC(=O)C(C)(C)C)OC1=O)C(C)C (configuration not stated) , state its measured log10 of TGI.
Resp: 1.40

Req: Using the record for CCCCC/C=C1\CCC(CN(C)C)C1=O (configuration not stated) , state its measured log10 of TGI.
Resp: 1.43

Req: Using the record for S=c1[nH]c2c(Cl)c(Cl)c(Cl)c(Cl)c2[nH]1 , state its measured log10 of TGI.
Resp: 1.73

Req: Using the record for NCCc1cc(O)c(O)cc1O , state its measured log10 of TGI.
Resp: 1.77

Req: Using the record for CN(C)c1ccc(N=Nc2ccccn2)c(O)c1 , state its measured log10 of TGI.
Resp: 1.70
